- STUDY TARGET: Recombinant human Src (Homo sapiens, UniProt P12931)
- Construct: made in house; host or cells: baculovirus-insect cell system
- Sequence (P12931 whole entry): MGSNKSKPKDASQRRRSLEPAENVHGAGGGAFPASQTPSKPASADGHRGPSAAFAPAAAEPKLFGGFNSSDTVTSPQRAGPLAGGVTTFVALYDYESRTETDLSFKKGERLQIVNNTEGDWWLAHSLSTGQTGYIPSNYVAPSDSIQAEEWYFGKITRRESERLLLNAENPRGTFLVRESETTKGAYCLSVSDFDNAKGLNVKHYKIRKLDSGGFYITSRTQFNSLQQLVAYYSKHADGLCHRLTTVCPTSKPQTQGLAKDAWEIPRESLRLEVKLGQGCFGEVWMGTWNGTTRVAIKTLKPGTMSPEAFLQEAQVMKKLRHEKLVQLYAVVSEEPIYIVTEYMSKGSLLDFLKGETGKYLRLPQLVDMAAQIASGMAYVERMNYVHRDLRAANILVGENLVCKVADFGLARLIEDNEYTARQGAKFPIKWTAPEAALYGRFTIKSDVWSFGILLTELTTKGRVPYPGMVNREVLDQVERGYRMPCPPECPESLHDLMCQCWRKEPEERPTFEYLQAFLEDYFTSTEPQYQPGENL
- TEST DESCRIPTION: Src tyrosine kinase activity, poly E4Y / 32P-ATP phosphorylation assay
- Assay type: biochemical
- ASSAY SETUP: compound at 15 μg/mL; read-out: % Inhibition at 15 μg/mL Src %
ASSAY METRIC: inhibition at 15 µg/mL (%)

CCCC(=O)Nc1cc(Oc2ccc(OC)cc2)ccc1NS(=O)(=O)c1ccc(C)cc1 [Compound 71z] ... 5

a: COc1ccc(Oc2ccc(NS(=O)(=O)c3ccc(C)cc3)c(NC(=O)NS(=O)(=O)c3ccc(C)cc3)c2)cc1 [Compound 71ii]
b: COc1ccc(OCc2ccc(CNC(=O)c3ccc(C)cc3)c(NS(=O)(=O)c3ccc(C)cc3)c2)cc1 [Compound 71ff]
c: COc1ccc(Oc2ccc(NCc3ccc4ccccc4n3)c(NS(=O)(=O)c3ccc(C)cc3)c2)cc1 [Compound 71g]
**Q:** Rank the 3 compounds: largest inhibition at 15 µg/mL first, smallest last. Write the labels out in the order the request specifies.
**A:** a, c, b

====

- STUDY TARGET: FGF receptor (FGFr)
- TEST DESCRIPTION: FGFr tyrosine kinase activity, poly E4Y / 32P-ATP phosphorylation assay
- Type: biochemical
- ASSAY SETUP: Table 2, Formula I compounds; NI = no inhibition at 100 μg/mL
ASSAY METRIC: IC50 (µM)

Some solved cases for reference:
COc1ccc(CSc2cc(NS(=O)(=O)c3ccc(C)cc3)c(NS(=O)(=O)c3ccc(C)cc3)cc2[N+](=O)[O-])cc1 ... 4.3
Cc1ccc(S(=O)(=O)Nc2cc(-c3ccccc3)c([N+](=O)[O-])cc2NS(=O)(=O)c2ccc(C)cc2)cc1 ... 4.9
COc1ccc(Sc2cc(NS(=O)(=O)c3ccc(C)cc3)c(NS(=O)(=O)c3ccc(C)cc3)cc2[N+](=O)[O-])cc1 ... 5.8
Cc1ccc(S(=O)(=O)Nc2cc(Sc3ccccc3C(C)C)c([N+](=O)[O-])cc2NS(=O)(=O)c2ccc(C)cc2)cc1 ... 4.3

a: COc1ccccc1Sc1cc(NS(=O)(=O)c2ccc(C)cc2)c(NS(=O)(=O)c2ccc(C)cc2)cc1[N+](=O)[O-]
b: Cc1ccc(S(=O)(=O)Nc2cc(SCc3ccco3)c([N+](=O)[O-])cc2NS(=O)(=O)c2ccc(C)cc2)cc1
**Q:** Could you please tell me which of these two has the higher IC50: a or b ? When you have decided, please share the label of that item.
**A:** a
(a: 20 µM, b: 7.3 µM)

====

- STUDY TARGET: Recombinant human Src (Homo sapiens)
- Construct: made in house; host or cells: baculovirus-insect cell system
- TEST DESCRIPTION: Src tyrosine kinase activity, poly E4Y / 32P-ATP phosphorylation assay
- Type: biochemical
- ASSAY SETUP: Table 3; compound at 15 μg/mL; read-out: % Inhibition at 15 μg/mL Src (%)
ASSAY METRIC: inhibition at 15 µg/mL (%)

COc1ccc(CCNC(=O)c2ccc(NS(=O)(=O)c3ccc(C)cc3)c(NS(=O)(=O)c3ccc(C)cc3)c2)cc1 [Compound 22b] ... 25

A: C=CCOc1ccc(NS(=O)(=O)c2ccc(C)cc2)c(NS(=O)(=O)c2ccc(C)cc2)c1 [Compound 12cc]
B: Cc1ccc(S(=O)(=O)Nc2ccc(OCCCCCCCCO)cc2NS(=O)(=O)c2ccc(C)cc2)cc1 [Compound 12dd]
C: Cc1ccc(S(=O)(=O)Nc2ccc(C(=O)Nc3cccnc3)cc2NS(=O)(=O)c2ccc(C)cc2)cc1 [Compound 22d]
D: COC(=O)c1c(S(=O)(=O)Nc2cc(Oc3ccc(OC)cc3)ccc2NS(=O)(=O)c2ccc(C)cc2)c(C)n(C)c1C [Compound 22dd]
**Q:** Sort ascending by inhibition at 15 µg/mL. Write the labels out in the order the request specifies.
**A:** C, D, A, B
(C: 0%, D: 5%, A: 19%, B: 36%)

====

- STUDY TARGET: Recombinant Csk (Homo sapiens, UniProt P41240)
- TEST DESCRIPTION: Csk tyrosine kinase activity, poly E4Y / 32P-ATP phosphorylation assay
- Type: biochemical
- ASSAY SETUP: Table 3, Formula II compounds; NI = no inhibition at 100 μg/mL
ASSAY METRIC: IC50 (µM)

COc1ccc(Oc2ccc(NS(=O)(=O)c3cccc4ccccc34)c(NS(=O)(=O)c3cccc4ccccc34)c2)cc1 [Compound 12h] ... 98
Cc1ccc(S(=O)(=O)Nc2ccc(-n3cnc4ccccc43)cc2NS(=O)(=O)c2ccc(C)cc2)cc1 [Compound 17b] ... 83

====

- STUDY TARGET: Recombinant human Src (Homo sapiens, UniProt P12931)
- Construct: made in house; host or cells: baculovirus-insect cell system
- TEST DESCRIPTION: Src tyrosine kinase activity, poly E4Y / 32P-ATP phosphorylation assay
- Format: biochemical
- ASSAY SETUP: Table 2, Formula I compounds; NI = no inhibition at 100 μg/mL
ASSAY METRIC: IC50 (µM)

COc1ccccc1Sc1cc(NS(=O)(=O)c2ccc(C)cc2)c(NS(=O)(=O)c2ccc(C)cc2)cc1[N+](=O)[O-] ... 7

A: Cc1ccc(S(=O)(=O)Nc2cc(SCc3ccco3)c([N+](=O)[O-])cc2NS(=O)(=O)c2ccc(C)cc2)cc1
B: Cc1ccc(S(=O)(=O)Nc2cc(Sc3ccc(Cl)cc3)c([N+](=O)[O-])cc2NS(=O)(=O)c2ccc(C)cc2)cc1
**Q:** Could you please tell me which of these two has the higher IC50: A or B ? When you have decided, please share the label of that item.
**A:** B
(B: 8 µM, A: 1.6 µM)

====

- STUDY TARGET: Recombinant human Src (Homo sapiens, UniProt P12931)
- Construct: made in house; host or cells: baculovirus-insect cell system
- TEST DESCRIPTION: Src tyrosine kinase activity, poly E4Y / 32P-ATP phosphorylation assay
- Assay type: biochemical
- ASSAY SETUP: Table 3, Formula II compounds; NI = no inhibition at 100 μg/mL
ASSAY METRIC: IC50 (µM)

Some solved cases for reference:
Cc1ccc(S(=O)(=O)Nc2ccc(C(=NOCc3ccccc3)c3ccccc3)cc2NS(=O)(=O)c2ccc(C)cc2)cc1 [Compound 22ii] ... 64
COc1ccc(Oc2ccc(NS(=O)(=O)c3ccc(C)cc3)c(NS(=O)(=O)c3ccc(C)cc3)c2)cc1 [Compound 12p] ... 28
COc1ccc(Oc2ccc(NS(=O)(=O)c3cnc(Cl)c(Br)c3)c(NS(=O)(=O)c3ccc(C)cc3)c2)cc1 [Compound 22t] ... 44
Cc1ccc(S(=O)(=O)Nc2ccc(OCc3ccc(Cl)cc3)cc2NS(=O)(=O)c2ccc(C)cc2)cc1 [Compound 15b] ... 14
Cc1ccc(S(=O)(=O)Nc2ccc(NS(=O)(=O)c3c(C)noc3C)cc2NS(=O)(=O)c2ccc(C)cc2)cc1 [Compound 22j] ... 25
COc1ccc(Oc2ccc(NS(=O)(=O)CCc3cccc4ccccc34)c(NS(=O)(=O)c3ccc(C)cc3)c2)cc1 [Compound 22y] ... 20
COc1ccc(Oc2ccc(NS(=O)(=O)c3ccccc3)c(NS(=O)(=O)c3ccccc3)c2)cc1 [Compound 12n] ... 29
Cc1ccc(S(=O)(=O)Nc2ccc(Oc3cccc(C(=O)O)c3)cc2NS(=O)(=O)c2ccc(C)cc2)cc1 [Compound 12x] ... 9.5
Cc1ccc(S(=O)(=O)Nc2ccc(OCc3ccccc3Cl)cc2NS(=O)(=O)c2ccc(C)cc2)cc1 [Compound 15d] ... 14
Cc1ccc(S(=O)(=O)Nc2ccc(-c3ccc(Cl)cc3)cc2NS(=O)(=O)c2ccc(C)cc2)cc1 ... 8.6

1: COc1ccc(Sc2ccc(NS(=O)(=O)c3ccc(C)cc3)c(NS(=O)(=O)c3ccc(C)cc3)c2)cc1 [Compound 12gg]
2: Cc1ccc(S(=O)(=O)Nc2ccc(NC(=O)Cc3ccccc3)cc2NS(=O)(=O)c2ccc(C)cc2)cc1 [Compound 22h]
3: COc1ccc(Oc2ccc(NS(=O)(=O)c3ccc(C(C)(C)C)cc3)c(NS(=O)(=O)c3ccc(C(C)(C)C)cc3)c2)cc1 [Compound 12o]
**Q:** Rank the 3 compounds: largest IC50 first, smallest last. Write the labels out in the order the request specifies.
**A:** 2, 1, 3
(2: 47 µM, 1: 16 µM, 3: 7.2 µM)

====

- STUDY TARGET: FGF receptor (FGFr)
- TEST DESCRIPTION: FGFr tyrosine kinase activity, poly E4Y / 32P-ATP phosphorylation assay
- Type: biochemical
- ASSAY SETUP: Table 3, Formula II compounds; NI = no inhibition at 100 μg/mL
ASSAY METRIC: IC50 (µM)

Some solved cases for reference:
COc1ccc(COc2ccc(NS(=O)(=O)c3ccc(C)cc3)c(NS(=O)(=O)c3ccc(C)cc3)c2)cc1 [Compound 15e] ... 132
Cc1ccc(S(=O)(=O)Nc2ccc(Oc3cccc(CC(=O)O)c3)cc2NS(=O)(=O)c2ccc(C)cc2)cc1 [Compound 12y] ... 26
Cc1ccc(S(=O)(=O)Nc2ccc(Sc3ccc(Cl)cc3)cc2NS(=O)(=O)c2ccc(C)cc2)cc1 [Compound 12ff] ... 3.6
Cc1ccc(S(=O)(=O)Nc2ccc(-n3ccnc3)cc2NS(=O)(=O)c2ccc(C)cc2)cc1 [Compound 17d] ... 3.1
COc1ccc(Oc2ccc(NS(=O)(=O)c3ccc(C(C)C)cc3)c(NS(=O)(=O)c3ccc(C(C)C)cc3)c2)cc1 [Compound 12b] ... 45

a: COc1ccc(Oc2ccc(NS(=O)(=O)c3ccc(OC)cc3)c(NS(=O)(=O)c3ccc(OC)cc3)c2)cc1 [Compound 12k]
b: Cc1ccc(S(=O)(=O)Nc2ccc(OCc3ccccc3Cl)cc2NS(=O)(=O)c2ccc(C)cc2)cc1 [Compound 15d]
c: CCCCSc1ccc(NS(=O)(=O)c2ccc(C)cc2)c(NS(=O)(=O)c2ccc(C)cc2)c1 [Compound 12hh]
d: Cc1ccc(S(=O)(=O)Nc2ccc(Oc3ccc(Cl)cc3)cc2NS(=O)(=O)c2ccc(C)cc2)cc1 [Compound 12w]
e: Cc1ccc(S(=O)(=O)Nc2ccc(N(C)C)cc2NS(=O)(=O)c2ccc(C)cc2)cc1 [Compound 17c]
**Q:** Sort ascending by IC50. Write the labels out in the order the request specifies.
**A:** d, c, a, b, e

These data points were gathered from patent US20060004197A1.
